- studyTarget: T1, human CD3 (human, UniProt P07766 23-207)
- T1 construct: whole, on cells; also called CD3 on human T-cells
- T1 sequence (P07766 23-207): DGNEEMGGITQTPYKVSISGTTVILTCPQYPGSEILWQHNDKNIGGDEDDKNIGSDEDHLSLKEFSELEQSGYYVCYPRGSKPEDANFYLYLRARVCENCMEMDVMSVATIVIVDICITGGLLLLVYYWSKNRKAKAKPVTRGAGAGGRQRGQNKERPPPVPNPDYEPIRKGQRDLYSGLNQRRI
- testDetails: cell binding, human T-cells
- Set-up: unit not given here
Lab note: compare Bmax against 30000. Equal or greater, write satisfied. Smaller, write not satisfied.

Consider the worked cases shown below.
Please tell me: is the binder Fab1-HK129-pAF (Fab, V domains shown, para-acetyl-phenylalanine (pAF) at HK129 (Kabat), From E. coli; carries no folate and no PEG; also called Fab1-HK129-pAF1; anti-CD3 Fab1-HK129-pAF control) VH: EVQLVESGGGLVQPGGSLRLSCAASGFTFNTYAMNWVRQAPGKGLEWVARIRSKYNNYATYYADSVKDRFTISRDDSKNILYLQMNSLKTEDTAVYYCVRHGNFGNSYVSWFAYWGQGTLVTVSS VL: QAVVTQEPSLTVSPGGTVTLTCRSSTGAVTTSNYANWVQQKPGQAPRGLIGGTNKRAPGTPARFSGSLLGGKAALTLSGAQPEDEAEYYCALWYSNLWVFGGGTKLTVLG at or over 30000 in terms of Bmax?
satisfied

Next entry: Fab1-HK129-LL157-BiFolate-Bi5KPEG (Fab, V domains shown, pAF at LL157 (Kabat) conjugated to a bifunctional linker carrying folate and 5K PEG (oxime); pAF at HK129 (Kabat) conjugated to a bifunctional linker carrying folate and 5K PEG (oxime), From E. coli; carries two folates and two 5K PEG; also called Fab1-HK129-LL157-Bi5KPEG-BiFolate) VH: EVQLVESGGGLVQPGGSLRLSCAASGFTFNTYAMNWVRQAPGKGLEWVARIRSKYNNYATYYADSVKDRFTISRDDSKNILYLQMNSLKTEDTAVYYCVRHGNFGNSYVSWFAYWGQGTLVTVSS VL: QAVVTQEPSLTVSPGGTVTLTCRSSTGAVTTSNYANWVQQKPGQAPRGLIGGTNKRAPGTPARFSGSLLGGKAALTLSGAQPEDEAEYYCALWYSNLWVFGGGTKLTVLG
not satisfied

Next:
Please tell me: is the binder Fab1-HK129-LL157-BiFolate (Fab, V domains shown, pAF at LL157 (Kabat) conjugated to folate (oxime); pAF at HK129 (Kabat) conjugated to folate (oxime), From E. coli; carries two folates) VH: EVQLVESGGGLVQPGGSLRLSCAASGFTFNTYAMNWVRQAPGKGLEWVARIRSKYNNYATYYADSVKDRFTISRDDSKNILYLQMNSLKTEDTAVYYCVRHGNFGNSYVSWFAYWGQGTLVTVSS VL: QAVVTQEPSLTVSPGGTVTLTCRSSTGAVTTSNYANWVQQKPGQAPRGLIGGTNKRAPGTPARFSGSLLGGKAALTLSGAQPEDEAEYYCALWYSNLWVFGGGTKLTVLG at or over 30000 in terms of Bmax?
not satisfied

Next entry: Fab1-HK129-LL157-pAF (Fab, V domains shown, pAF at LL157 (Kabat); pAF at HK129 (Kabat), From E. coli; double pAF variant, unconjugated; also called Fab1-HK129pAF-LL157pAF) VH: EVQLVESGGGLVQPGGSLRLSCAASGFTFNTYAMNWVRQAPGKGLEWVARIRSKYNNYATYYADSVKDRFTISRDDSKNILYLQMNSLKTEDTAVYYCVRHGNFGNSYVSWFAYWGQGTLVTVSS VL: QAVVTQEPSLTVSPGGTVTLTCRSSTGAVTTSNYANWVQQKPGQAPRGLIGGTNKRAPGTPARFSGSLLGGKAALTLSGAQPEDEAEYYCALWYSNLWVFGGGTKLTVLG
not satisfied

Next entry: Fab1-HK129-5KPEG-Folate (Fab, V domains shown, pAF at HK129 (Kabat) conjugated to a bifunctional linker carrying folate and a linear 5K PEG (oxime), From E. coli; also called Fab1-5KPEG-Folate) VH: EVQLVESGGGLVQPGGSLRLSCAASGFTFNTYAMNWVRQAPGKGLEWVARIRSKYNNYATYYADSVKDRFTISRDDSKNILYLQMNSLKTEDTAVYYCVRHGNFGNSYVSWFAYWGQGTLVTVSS VL: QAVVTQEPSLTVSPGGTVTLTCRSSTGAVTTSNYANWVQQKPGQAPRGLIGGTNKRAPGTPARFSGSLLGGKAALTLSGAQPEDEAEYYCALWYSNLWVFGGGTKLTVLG
not satisfied
